- TESTED_TARGET: F protein mutant RSV-DS-Cav1-A with a DS-Cav1 structure before fusion (respiratory syncytial virus subtype A, …, UniProt P03420 26-513)
OBSERVATION_TYPE: kon (M⁻¹ s⁻¹)
Please state the figure in M⁻¹ s⁻¹; there is no need to write the unit.

[
  {
    "BINDER": "recombinant monoclonal antibody R3B1h1 against F protein of RSV (human IgG1-K version) (antibody, V domains shown) VH: QVQLVQSGAEVKKPGSSVKVSCKASGGLLEDYIINWVRQAPGQGLEWMGGIIPVLGTVHYGPKFQGRVTITADESTSTAYMELSSLRSEDTAVYYCATETAIVVTESYRPHFFDNWGQGTLVTVSS VL: DIQMTQSPSSLSASVGDRVTITCQASQDIVNYLNWYQQKPGKAPKLLIYVASNLETGVPSRFSGSGSGTDFTFTISSLQPEDIATYYCQEFAGLALNFGGGTKVEIKR",
    "ENDPOINT_UNIT": "M⁻¹ s⁻¹",
    "kon": 31800
  }
]

Attention now shifts to the item below.
Report kon for recombinant monoclonal antibody R22B1 against F protein of RSV (human IgG1-K version) (antibody, V domains shown) VH: QVQLVQSGAEVKKPGSSVMVSCQASGDPLQNYIINWVRQAPGQGPEWMGAIIPALGSAHYGPKFQGRVTITADESTDTAYMELSSLRSEDTAMYYCATETAVIISESYLPHFFDNWGQGTLVTVSS VL: DIQMTQSPSSLSAAVGDRVTITCQASQDIVNYLNWYQQKPGKAPKLLIYVASNLETGVPSRFSGSGSGTDFSLTISSLQPEDVATYYCQEYDSLALAFGGGTKVEIKR please. 39900
